src = PubChem BioAssay (NCATS)

experiment: Viability qHTS for spleen associated tyrosine kinase inhibitor (SYKi) naive MV4-11 cells (AID 1963823); conditions: MV4-11 AML viability, CellTiter-Glo luminescence, 72 h; series mostly up to 45 µM; further: nearly all actives have a fitted effect of over 40% in size; further: potency means the concentration at half of the fitted maximal effect
Records with an inconclusive call do not appear. Calls of active or inactive are those of the source. The call rests on the fitted dose curve; in most records, active means well fitted cell-killing curve with a large enough effect; inconclusive means small, poorly fitted or top-dose-only effect, or effect the other way; inactive means no such curve, though single readings can be large or run the other way.
READOUT_TYPE: Potency

Solved cases below.
Kindly indicate its recorded Potency. Item: O=C(O)CCCc1ccccc1
inactive

Give the reported Potency for this compound. CCc1cc(CN2CC(C(=O)O)C2)sc1-c1noc(-c2ccc(Oc3ccccc3)cc2)n1
inactive

For the compound Nc1nonc1-c1nc2cnccc2n1C1CC1 , report Potency.
2.06 µM (active)

Please indicate Potency recorded for CN1[C@@H]2CC[C@H]1CC(NC(=O)n1c(=O)[nH]c3ccccc31)C2 (stereo partly specified)
inactive

Using the record for C=C(C)C(=O)OC1[C@@H]2C(=C)C(=O)O[C@@H]2C[C@@H](C)[C@@H]2C=CC(=O)[C@@]12C (stereo partly specified) , state its measured Potency.
2.27 µM (active)

Indicate the recorded Potency value for this compound: O=C(O)c1cn(C2CC2)c2cc(N3C[C@@H]4C[C@H]3CN4)c(F)cc2c1=O
inactive

Please indicate Potency recorded for O=C(NCC(O)CO)c1ccncc1Nc1ccc(I)cc1F (stereo unspecified)
0.366 µM (active)

Supply reported Potency belonging to this compound: CO[C@@H]1[C@@H](OC(N)=O)[C@@H](O)[C@H](Oc2ccc3c(O)c(NC(=O)c4ccc(O)c(CC=C(C)C)c4)c(=O)oc3c2C)OC1(C)C
inactive

Give Potency for Fc1ccc(-c2csc3ncnc(NCc4ccc5c(c4)OCO5)c23)cc1
1.66 µM (active)

Name the recorded Potency of the item Cc1nc(CN(C)c2ncnc3ccc(-c4ccc5c(c4)OCO5)cc23)cs1 in your answer.
3.26 µM (active)

---
Dear colleague, please send me the reported Potency for CC(C)C[C@H](NC(=O)[C@@H](O)[C@H](N)Cc1ccccc1)C(=O)O when you can.
inactive

Name the recorded Potency of the item CCN(CC)Cc1ccc(C(=O)N(CCc2ccccc2OC)[C@@H]2CCNC2)cc1 in your answer.
3.17 µM (active)

Give recorded Potency. N[C@@H]1CONC1=O
inactive

Specify reported Potency for the compound shown: CC1OC2O[C@H]3[C@@H](OCC(O)[C@H]3O)OC(=O)C34CCC(C)(C)CC3C3=CCC5C6(C)CC(O)C(OC7OC(CO)C(O)C(O)C7O[C@@H]7OC[C@H](OC(=O)CC(C)(O)CC(=O)OC1C(OC1OCC(O)C(O)C1O)C2O)[C@@H](O)[C@H]7O)C(C)(CO)C6CCC5(C)C3(C)CC4 (stereo partly specified)
8.93 µM (active)

Item O=C1NC(Cc2ccccc2)C(=O)N2CCCC12 (stereo unspecified) : provide Potency
inactive

Return value of Potency for input O=C(CCN1CCC(c2ccccc2)C1)c1ccc2c(c1)OCCO2 (stereo unspecified) , no commentary.
7.5 µM (active)

###

assay: Quantitative highthroughput screen to assess conditional lethalithy of P12 Ichikawa cells grown in RPMI1640 with dialyzed fetal bovine serum (RPMI+ds) (AID 1963880); conditions: ATP luminescence, 48 h; P12-Ichikawa viability; series mostly up to 45.8 µM; further: nearly all actives have a fitted effect of over 35% in size;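 on viability: 100% = DMSO wells and 0% = empty wells on each plate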
Records with an inconclusive call do not appear. Calls of active or inactive are those of the source. Calls follow the shape of the dose curve; as a rule, active = well fitted cell-killing curve with a large enough effect; inconclusive = small, poorly fitted or top-dose-only effect; inactive = flat fitted curve, though single readings scatter.
Output constraint: value belongs to true (1) (active), false (0) (inactive)

// param item: C[C@H](NC(=O)C(C#N)=Cc1cccc(Br)n1)c1ccccc1 ; yields the recorded call
true (1)

Recorded test outcome, item CC(C)c1cnn2c(NCc3ccccc3)cc(N[C@@H](CO)[C@H](O)CO)nc12
true (1)

***
What did this assay record as the result for O=C(O)c1ccccc1C(=O)Nc1ccc(-c2ccccc2)cc1 ?
false (0)

Assay result, entry COc1ccc(CCN2CCN(CCCc3ccccc3)CC2)cc1OC — outcome?
false (0)

Can you look up the reported call for CCOc1cc(CC(=O)N[C@@H](CC(C)C)c2ccccc2N2CCCCC2)ccc1C(=O)O for me?
true (1)

Assay result, entry O=C(c1ccccc1)c1ccc2n1CCC2C(=O)O (stereo not given) — outcome?
true (1)

# outcome recorded in this test, key = Nc1ccc(S(N)(=O)=O)cc1
false (0)

Recorded call for Cc1cc(-c2ncc(CC(=O)Nc3ccc(-c4cnccn4)cn3)cc2C)ccn1 ?
false (0)

What did this assay record as the result for O=C(CN1C(=O)C2(CCCC2)NC[C@H]1c1cc(F)cc(F)c1)Nc1ccc2c(c1)C[C@@]1(C2)C(=O)Nc2ncccc21 ?
false (0)

Hi team, can someone confirm the assay call for Cc1cnc(NC(=O)Nc2cc(Br)c(C)cc2OC[C@@H]2CNCCO2)cn1 ?
true (1)

###

assay: Quantitative highthroughput screen to assess conditional lethalithy of P12 Ichikawa cells grown in RPMI1640 with dialyzed fetal bovine serum (RPMI+ds) (AID 1963880); conditions: ATP luminescence, 48 h; P12-Ichikawa viability; series mostly up to 45.8 µM; further: nearly all actives have a fitted effect of over 35% in size;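 on viability: 100% = DMSO wells and 0% = empty wells on each plate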
Results filed as inconclusive are left out. The source made the active and inactive calls. Calls come from the whole dose curve; as a rule, active = well fitted cell-killing curve with a large enough effect; inconclusive = small, poorly fitted or top-dose-only effect; inactive = flat fitted curve, though single readings scatter.
Could you please pick one outcome from this set? T = active, F = inactive

For N[C@@H](Cc1ccc(O)c(O)c1)C(=O)O , what call appears in the results of this test?
F

Hey, what did the test say about COC(=O)[C@@H]1[C@H]2C[C@@H]3c4[nH]c5ccccc5c4CCN3C[C@@H]2CC[C@@H]1O ?
T

Look up the recorded call for CC(C)(CO)[C@@H](O)C(=O)NCCC(=O)O in this test.
F

Check the results log: what was the call for COc1cc([C@H]2Oc3cc([C@H]4Oc5cc(O)cc(O)c5C(=O)[C@H]4O)ccc3O[C@H]2CO)ccc1O ?
F

Assay result, entry CC(C)(O)CCc1ccc(OCc2cc(-c3cccc(OC(F)F)c3)c3ncccc3c2)cc1 — outcome?
F

Kindly provide the recorded test outcome for the following molecule: Nc1nc(-c2nn(Cc3ccccc3F)c3ncccc23)nc(N)c1N1CCOCC1
F

# outcome recorded in this test, key = CN(C)CCOc1cc(-c2cn[nH]c2)ccc1NC(=O)C1COc2ccccc2O1 (stereo not given)
F

Assay result, entry CC(C)c1ccc2oc3nc(N)c(C(=O)O)cc3c(=O)c2c1 — outcome?
F

Recorded call for O=c1[nH]c(=O)n([C@H]2C[C@@H](O)[C@@H](CO)O2)cc1F ?
T

Dear colleague, could you share the recorded outcome for Cc1cc(Nc2ncc3c(n2)N(C)C(=O)N(c2cc(NC(=O)c4cccc(C(F)(F)F)c4)ccc2C)C3)n(C)n1 when you have a moment?
T

###

assay: Quantitative highthroughput screen to assess conditional lethalithy of NOMO1 cells grown in RPMI1640 with dialyzed fetal bovine serum (RPMI+ds) (AID 1963877); settings: NOMO1 in RPMI+dialyzed FBS viability, ATP luminescence, 48 h; series mostly up to 45.8 µM; further: nearly all actives have a fitted effect of over 30% in size;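 on viability: 100% = DMSO control wells and 0% = empty wells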
Inconclusive results are not listed. The source made the active and inactive calls. The call rests on the fitted dose curve; in most records, active means well fitted cell-killing curve with a large enough effect; inconclusive means small, poorly fitted or top-dose-only effect; inactive means flat fitted curve, though single readings scatter.
Pick one and only one: active, inactive

Some solved entries appear below for comparison.
Tell me the assay call for CC(=O)OCC(=O)[C@@]12N=C(C)O[C@H]1C[C@H]1[C@@H]3CCC4=CC(=O)C=C[C@]4(C)[C@@H]3[C@@H](O)C[C@@]12C please.
inactive

Query: recorded result category for O=C(Nc1cccnn1)N1CCC(=Cc2cccc(Oc3ccc(C(F)(F)F)cn3)c2)CC1 in this test
inactive

Lab log entry: CC[C@H]1OC(=O)[C@H](C)C(=O)[C@H](C)[C@@H](O[C@H]2O[C@H](C)C[C@H](N(C)C)[C@@H]2O)[C@](C)(OC)C[C@@H](C)C(=O)[C@H](C)[C@H]2N(CCCCn3cnc(-c4cccnc4)c3)C(=O)O[C@]12C — outcome as called in the assay?
inactive

Per the records of this test, what outcome belongs to CC[C@]1(O)C[C@H]2CN(CCc3c([nH]c4ccccc34)[C@@](C(=O)OC)(c3cc4c(cc3OC)N(C=O)[C@H]3[C@@](O)(C(=O)OC)[C@H](OC(C)=O)[C@]5(CC)C=CCN6CC[C@]43[C@@H]65)C2)C1 ?
active

Query: recorded result category for COc1ccccc1OCC(O)CN1CCN(CC(=O)Nc2c(C)cccc2C)CC1 (centres undefined) in this test
inactive

Lab log entry: CC(C)(C)C(=O)Oc1ccc2c(c1)nc(NC(=O)c1cccc([N+](=O)[O-])c1)n2CCCO — outcome as called in the assay?
inactive

Entry CC(C[N+](C)(C)C)OC(N)=O (centres undefined) : call = ?
inactive

Please state the recorded outcome for this compound: NC(=O)c1ccc2nc(-c3ccc(Oc4ccc(Cl)cc4)cc3)[nH]c2c1
inactive

Per the records of this test, what outcome belongs to C=CCn1c(=O)c2cnc(Nc3ccc(N4CCN(C)CC4)cc3)nc2n1-c1cccc(C(C)(C)O)n1 ?
active

Per the assay record, what outcome was assigned to CCOC(=O)C1=C[C@@H](OC(CC)CC)[C@H](NC(C)=O)[C@@H](N)C1 ?
inactive

***
Kindly provide the recorded test outcome for the following compound: C[C@@H](NCCCc1cccc(C(F)(F)F)c1)c1cccc2ccccc12
inactive

Name the outcome recorded for CC(C)(C(=O)NCC(F)(F)C(F)(F)F)C(=O)N[C@@H]1C(=O)Nc2ccccc2-c2ccccc21 in the assay.
active

Identify the outcome logged in this assay for the compound shown: CN[C@H]1[C@@H](O)[C@@H]2O[C@@H]3O[C@H](C)CC(=O)[C@]3(O)O[C@@H]2[C@@H](NC)[C@H]1O
inactive

What is the recorded call for this compound in the test? O=C(c1ccc(C(=O)N2CCC(N3CCCC3)CC2)c(Nc2ccccc2)c1)N1CCC(N2CCCC2)CC1
inactive

Record lookup: outcome of this test for COc1cccc([C@@H](C)NCCCc2ccccc2Cl)c1 ?
inactive

Look up the recorded call for CC(C)OC(=O)OCOP(=O)(CO[C@H](C)Cn1cnc2c(N)ncnc21)OCOC(=O)OC(C)C in this test.
active

Outcome logged for O=C(c1ccc(Nc2nccc(-c3cc4ccccc4s3)n2)cc1)N1CCC(N2CCCC2)CC1 in this assay:
active

State the result this test recorded for COc1cc2ncnc(-n3nc(-c4ccccn4)nc3N)c2cc1OC .
active

# lookup: test call for NC(=O)c1ccc(I)c([N+](=O)[O-])c1
inactive

Identify the outcome logged in this assay for the compound shown: O=c1oc2cc(O)ccc2s1
inactive

Outcome logged for CNS(=O)(=O)CCc1ccc2[nH]cc(C3CCN(C)CC3)c2c1 in this assay:
inactive

Check the results log: what was the call for C[C@H]1[C@@H](OC(=O)CCC(=O)O)O[C@@H]2O[C@@]3(C)CC[C@@H]4[C@H](C)CC[C@@H]1[C@@]24OO3 ?
active
